- protocol: soluble on expression in E. coli; label from the status in PepcDB or PDB records
metric.name: soluble on expression in E. coli

INSERT INTO measurements (residue_string, metric_name, reading) VALUES
  ('EDKYTDKYDNINLDEILANKRLLVAYVNCVMERGKCSPEGKELKEHLQDAIENGCKKCTENQEKGAYRVIEHLIKNEIEIWRELTAKYDPTGNWRKKYEDRAKAAGIVIPEE', 'soluble on expression in E. coli', 'soluble'),
  ('MLVAERHEKIIALVTEKGSVRVSELSQLFNVTEETIRRDLEKLESERKLQRSHGGAVSIKEDTEAPYFEREIRNVNEKQAVAAQAVTYVTTNDRIILDASTTAWYMAKRLPDVPLTVLTNSMKVAMELAKREKITVITVGGTLLRKSLSFVGPQTNQTLELYHVNKAFISCQGVHAKRGISDSNEMQALVKQKMIDISDHVFLLADHTKFGKQAFSRITSMETIDTIITDSKTSEEQISDFQELEMDVIRALEHHHHHH', 'soluble on expression in E. coli', 'soluble'),
  ('MSHKLTILPFLIKFTPKFPQSIDHDEHGLNVYAFDLDHTIIKPKSPNISFSRSASDWQFINFNSKKSTLDYLCNIIDNDPTAVIVIFSNQGGVITVPRTSKSCTKYTNKILLFLKAIKNDERGETLSHRLWLYAAPKRPKTFAANHSKITFASLGESYNNDPNIFEKVRKPMTGMVEFFKRDLESAYRVSEQISPIKLNWIYYCGDAAGRKKDFSDSDIKFAENLHVEFKYPEEIFHG', 'soluble on expression in E. coli', 'soluble'),
  ('MLTLYTSPSCTSCRKARAWLQEHEIPFKERNIFSEPLNIEELKAILIMTEDGTEEIISTRSKVFQKLNMDLDELPLQDLLELVQENPGLLRRPIMIDEKRLQVGFNEDEIRRFLPRDVRQLELRQAQLMAGL', 'soluble on expression in E. coli', 'soluble'),
  ('MAHHHHHHMEKDGYTKLSEEEEQQLDNCRACMALTAVFMEEVMKPTEKLQHQLHQQQQQEGSAPRTPKNSDAVRSGERQRLVTNVHDAIDKLCDRVKERNNQVDASYDKGKEERDEKSESTEGGPIWYVSVNTAACEVALEEVSEALAREAFAQLLPERVAGTRGGGPSAVCEQENLCTARLSQHVKSEEEKAKAELEKEMRRQRELSRKNPKETLALQRAVAVGVGIMVIALWLRGRQSAKPEGDVKKD', 'soluble on expression in E. coli', 'not soluble'),
  ('EDFAKSIQDFIENGKTLEDFRKDFDKIVAKHGWQYNGGRNWRSRIIYETNLRSSYQAGRYAQLQELKETMPYWEYVHNDAVTYPRVEHMHWDGLILRHDDPWWKTHFPINAWGCQCTVI', 'soluble on expression in E. coli', 'not soluble');

# soluble on expression in E. coli of MAHHHHHHMDPPAAFERRYPELGALRLHFDVLDSTQLYCKRNMARLLQNGSLQDDKHMVVVTCNEQTNGIGTRDTKKKQDRMWLSERGNLFTTFVLLWKREDLEKVKYLSQTSTVAVSKTLEHFHLVTQIKWVNDVLVNEKKIAGCLVHLHYLDDFPSLSRYACVMVGIGINITLRDKDNLLGDNYTSVQKELQRDFGSFCSIPSVEDVMDKLILNLHAVFTKLREEGFSSFLDYITPRLLYKDRNVLVDTDGELIAGHLQGLLHDGSLLLLRGENELVRVNTGHLRLG = soluble

meta.source: the DeepSol protein solubility set
